Target: human cyclin D1-CDK4 (Homo sapiens, UniProt P11802)
Sequence (P11802 whole entry): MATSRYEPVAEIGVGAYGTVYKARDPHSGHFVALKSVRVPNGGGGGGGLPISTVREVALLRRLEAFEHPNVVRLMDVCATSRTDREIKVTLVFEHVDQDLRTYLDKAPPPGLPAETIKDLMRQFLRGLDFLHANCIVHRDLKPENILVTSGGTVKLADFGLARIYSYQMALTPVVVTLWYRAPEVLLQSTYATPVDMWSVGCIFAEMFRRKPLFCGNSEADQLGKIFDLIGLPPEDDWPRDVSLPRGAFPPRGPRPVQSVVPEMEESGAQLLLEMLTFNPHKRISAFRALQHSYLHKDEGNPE
Sequence (P24385 whole entry partner): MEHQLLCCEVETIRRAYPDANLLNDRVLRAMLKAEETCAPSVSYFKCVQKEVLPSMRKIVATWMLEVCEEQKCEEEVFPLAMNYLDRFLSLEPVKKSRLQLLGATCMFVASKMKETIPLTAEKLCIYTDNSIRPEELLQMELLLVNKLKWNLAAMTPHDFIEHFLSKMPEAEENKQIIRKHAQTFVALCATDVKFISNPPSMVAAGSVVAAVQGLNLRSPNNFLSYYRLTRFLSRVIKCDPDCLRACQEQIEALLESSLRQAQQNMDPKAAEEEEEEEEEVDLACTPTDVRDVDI
Test: FlashPlate kinase assay, cyclin D1-CDK4
Format: biochemical
Settings: Rb protein substrate, 1 μM ATP, 33P-ATP, 30 minutes room temperature; read-out: CDK4 IC50
Measured IC50 of individual entries
Just the number please, in µM, no unit attached.

Nc1nc(Nc2ccc(N3CCC(N4CCCC(O)C4)CC3)cc2)sc1C(=O)c1ccc(Cl)cc1 (stereo not shown) : 0.062
Nc1nc(Nc2ccc(N3CCC(N4CCCCC4)CC3)cc2)sc1C(=O)c1ccc2c(c1)OCCO2 : 0.009
CN(C)C1CCN(c2ccc(Nc3nc(N)c(C(=O)c4ccc(O)c(C(N)=O)c4)s3)cc2)CC1 : 0.677
NC(=O)c1cc(C(=O)c2sc(Nc3ccc(N4CCC(N5CCCC5)CC4)cc3)nc2N)ccc1O : 0.39
Nc1nc(Nc2ccc(N3CCC(N4CCCC4)CC3)cc2)sc1C(=O)c1cccc(F)c1 : 0.032
Nc1nc(Nc2ccc(N3CCC(N4CCCC(O)C4)CC3)cc2)sc1C(=O)c1cccc(F)c1 (stereo not shown) : 1.09
Nc1nc(Nc2ccc(N3CCC(N4CCOCC4)CC3)cc2)sc1C(=O)c1ccc2c(c1)OCO2 : 0.025
Nc1nc(Nc2ccc(N3CCC(N4CCCC4)CC3)cc2)sc1C(=O)c1ccc(O)cc1 : 0.053

Item under review: Nc1nc(Nc2ccc(N3CCC(N4CCCC(O)C4)CC3)cc2)sc1C(=O)c1ccc2c(c1)OCCO2 (stereo not shown) . Reported IC50?
5.26

For COc1ccc(C(=O)c2sc(Nc3ccc(N4CCC(N5CCCCC5)CC4)cc3)nc2N)cc1[N+](=O)[O-] then?
0.034

For COc1cccc(C(=O)c2sc(Nc3ccc(N4CCC(N(C)C)CC4)cc3)nc2N)c1[N+](=O)[O-] then?
0.008

For COc1cccc(C(=O)c2sc(Nc3ccc(N4CCC(N(C)C)CC4)cc3)nc2N)c1 then?
0.005

For Nc1nc(Nc2ccc(N3CCC(N4CCCC4)CC3)cc2)sc1C(=O)c1cc(F)cc(F)c1 then?
0.076
